Each item that follows carries a reported growth.
# Tested on: DU-145 prostate
# runDescription: NCI-60 one-dose screen, 48 h (100 = growth as untreated, 0 = no growth, -100 = all killed)
# testSettings: 10 µM unless noted
The panel holds about 83,000 compounds, 20% with a hit somewhere; the sample as a whole holds those more often.

>  <compound>
C=Cc1cc[n+](CCCCCCCCCCCC)cc1

>  <growth / %>
105

$$$$
>  <compound>
CCCCCCCCOc1ccc(/C=N/Nc2cc(C)nc3ccc(Cl)cc23)cc1

>  <growth / %>
-87.3

$$$$
>  <compound>
C=C(C)[C@@H]1CC[C@]2(C(=O)N3CCN(C)CC3)CC[C@]3(C)[C@H](CC[C@@H]4[C@@]5(C)CCC(=O)C(C)(C)[C@@H]5CC[C@]43C)[C@@H]12

>  <growth / %>
82.8

$$$$
>  <compound>
CCCCCCCCCCCCCCCCCCOc1ccccc1N

>  <growth / %>
62

$$$$
>  <compound>
N#CSCC1CC(O)(c2ccccc2)C(c2ccccc2)C(c2ccc(F)cc2)O1 (stereo not given)

>  <growth / %>
-4.17

$$$$
>  <compound>
O=C1c2ccccc2C(=O)c2c(NCCN=Cc3ccccc3O)cccc21

>  <growth / %>
-26

$$$$
>  <compound>
Fc1ccc(C2CC(c3cccc(Nc4ccncc4)c3)=NN2c2ccccc2)cc1 (stereo not given)

>  <growth / %>
44.1

$$$$
>  <compound>
CN1C(=O)N(C)C2NC(N/N=C/c3ccccc3)=NC21 (stereo not given)

>  <growth / %>
108

$$$$
>  <compound>
CCOC(=O)C1=C(C)NC(C)=C(C(=O)OCC)C1c1cc(Br)c(O)c(OC)c1

>  <growth / %>
20.8

$$$$
>  <compound>
NNC(=O)/C(=C\c1ccc([N+](=O)[O-])cc1)CC(=O)c1ccc(Cl)c(Cl)c1

>  <growth / %>
88.7

$$$$

* * *

# System: SR leukemia
# runDescription: NCI-60 one-dose screen, 48 h
# testSettings: 10 µM unless noted
About 83,000 compounds went through this panel and 20% of them were active in at least one assay; those are over-represented in the sample as a whole. Calls of active or inactive are those of the source. The calls were made as follows: active = growth percent below 10; inactive = the rest.
Outcomes: active, inactive

>  <compound>
O=S(=O)(NCCNc1nccc(-c2c(-c3cccc(F)c3)nc3occn23)n1)c1cccc2ccccc12

>  <labelValue>
inactive

$$$$
>  <compound>
CCCCCOc1ccc(/C=N/Nc2cc(C)nc3ccc(Br)cc23)cc1

>  <labelValue>
active

$$$$
>  <compound>
CCOC(=O)c1ccc(Nc2ccnc(SCC(=O)c3ccc(C#N)cc3)n2)cc1

>  <labelValue>
inactive

$$$$
>  <compound>
COc1ccc(-c2nc3sccn3c2/C=C/C(=O)c2cc(OC)c(OC)c(OC)c2)cc1

>  <labelValue>
inactive

$$$$
>  <compound>
C=C(C)[C@H]1CC/C(C)=C/CC[C@]2(C)O[C@H]2CC/C(COC(=O)[C@@H](OC(C)=O)[C@H](NC(=O)c2ccccc2)c2ccccc2)=C\[C@@H]1O

>  <labelValue>
inactive

$$$$
>  <compound>
Cc1ccc(C2CC(c3cccc(Nc4ccncc4)c3)=NN2c2ccccc2)cc1 (centres undefined)

>  <labelValue>
active

$$$$
>  <compound>
CCCCCCCCN1C(=O)/C(=c2\sc3n(c2=O)C2C(NN=3)N(CC)C(=O)N2CC)c2ccccc21 (centres undefined)

>  <labelValue>
inactive

$$$$
>  <compound>
O=C(Nc1cccc(Cl)c1)c1cc(Cl)ccc1O

>  <labelValue>
inactive

$$$$
>  <compound>
O=C1NC(=S)NC(=O)C1=Cc1cccc(C=C2C(=O)NC(=S)NC2=O)c1

>  <labelValue>
inactive

$$$$
>  <compound>
COc1ccc(Nc2nc(N)nc3c2CCc2occc2-3)cc1

>  <labelValue>
inactive

$$$$
>  <compound>
CC(=O)c1c(C)[nH]c(-c2nc3ccc(N4CCN(C)CC4)cc3[nH]2)c1-c1ccccc1

>  <labelValue>
inactive

$$$$
>  <compound>
C=C(C)[C@@H]1CC[C@]2(C(=O)O)CC[C@]3(C)[C@H](CC[C@@H]4[C@@]5(C)C[C@@H](CC#Cc6ccc(Br)cc6)C(=O)C(C)(C)[C@@H]5CC[C@]43C)[C@@H]12

>  <labelValue>
inactive

$$$$
>  <compound>
COc1cc2nc(Cc3ccc(C)cc3)[nH]c(=O)c2cc1OC

>  <labelValue>
inactive

$$$$
>  <compound>
CC(=O)NCCCS(=O)(=O)O

>  <labelValue>
inactive

$$$$
>  <compound>
Nc1nc(SN=Nc2ccc(S(N)(=O)=O)cc2)c2[nH]cnc2n1

>  <labelValue>
active

$$$$
>  <compound>
COc1cc2nc(-c3ccc(C(F)(F)F)cc3)cc(OCCCN3CCCCC3)c2cc1OC

>  <labelValue>
active

$$$$
>  <compound>
C#Cc1cccc(NC(=O)Nc2ccc(NC(=O)CCl)cc2)c1

>  <labelValue>
active

$$$$
>  <compound>
COc1ccc(C(=O)c2cc3c(N)c(C(=O)Nc4cccc5ccccc45)sc3nc2C)cc1

>  <labelValue>
active

$$$$
>  <compound>
O=C(CN1CCOCC1)Nc1ccc2ncnc(Nc3ccc(OCc4cccc(F)c4)c(Cl)c3)c2c1

>  <labelValue>
inactive

$$$$

The reported measurements were obtained from PubChem BioAssay (NCI).
